Experiment: AUC in Cynomolgus monkey at 10 mg/kg, po measured after 24 hrs by LC/MS/MS analysis
Type: ADME, organism-based, Macaca fascicularis
Design: dose 10 mg/kg, time 24 hrs, route po
Settings: in vivo
observation-type: AUC at 24 h

• Cn1c(=O)cc(N2CCC[C@@H](N)C2)n(Cc2ccccc2C#N)c1=O = 16600 ng·h/mL

====

Assay: AUC in rat at 10 mg/kg, po measured after 24 hrs by LC/MS/MS analysis
Assay type: ADME, organism-based
Design: dose 10 mg/kg, time 24 hrs, route po
Conditions: in vivo
observation-type: AUC at 24 h

- Cn1c(=O)cc(N2CCC[C@@H](N)C2)n(Cc2ccccc2C#N)c1=O [ALOGLIPTIN]: 1200 ng·h/mL
